System: AKR/Lw mice, AKR lymphoma ip, median survival T/C
protocol: NCI In Vivo Anticancer Drug Screen. Data for tumor model Lymphoma AKR (Transplanted) (intraperitoneal) in AKR/Lw mice
condition notes: endpoint: median survival time; dose: 25.0 mg/kg/injection; schedule: Q01DX009 (ip); vehicle: Klucel (hydroxypropylcellulose) (HPC); higher = longer survival
Toxic doses and inconclusive results are not listed.
assay endpoint: T/C

See these solved cases before continuing.
Entry NC(=S)N/N=C/c1ccc(O)cn1 — recorded T/C = 119 % of control

Entry CS(=O)(=O)OCCCCOS(C)(=O)=O — recorded T/C = 89 % of control

Entry O=C(O)c1ccc(SSc2ccc(C(=O)O)cn2)nc1 — recorded T/C = 92 % of control

Entry COc1ccc(C2c3cc4c(c(OC)c3CC3OCC(=O)C32)OCO4)cc1OC (stereo not given) — recorded T/C = 110 % of control

# evaluate next
Entry N#CCCNc1ccc(NC(=O)C(F)(F)F)cc1 — recorded T/C = 96 % of control

###

Tested on: AKR/Lw mice, AKR lymphoma ip, median survival T/C
protocol: NCI In Vivo Anticancer Drug Screen. Data for tumor model Lymphoma AKR (Transplanted) (intraperitoneal) in AKR/Lw mice
condition notes: endpoint: median survival time; dose: 100.0 mg/kg/injection; schedule: Q01DX001 (ip); vehicle: saline; higher = longer survival
Inconclusive results and toxic doses are left out.
assay endpoint: T/C

See these solved cases before continuing.
Entry c1ccc2c(c1)OCCOCCOc1ccccc1OCCOCCO2 — recorded T/C = 107 % of control

Entry OCC1(O)CC(O)C(O)(CO)CC1O (stereo not drawn) — recorded T/C = 97 % of control

Entry CC[N+]1=NC2CCCC(C2)C1 (stereo not drawn) — recorded T/C = 101 % of control

Entry CC12CC3CC(C1)CC(C(=O)O)(C3)C2 — recorded T/C = 100 % of control

Entry CCCCCCCCCCCCCCCC(=O)N(CCCN)CCCCCCCCCN(CCCN)C(=O)CCCCCCCCCCCCCCC — recorded T/C = 108 % of control

Entry Cn1c(O)c(C=N)c(=O)[nH]c1=O — recorded T/C = 113 % of control

Entry OCC#CC#CCO — recorded T/C = 100 % of control

***
Entry COc1cc2ccc(C(C)N)cc2cc1OC (stereo not drawn) — recorded T/C = 98 % of control

###

System: AKR/Lw mice, AKR lymphoma ip, median survival T/C
protocol: NCI In Vivo Anticancer Drug Screen. Data for tumor model Lymphoma AKR (Transplanted) (intraperitoneal) in AKR/Lw mice
condition notes: endpoint: median survival time; dose: 50.0 mg/kg/injection; schedule: Q01DX009 (ip); vehicle: Klucel (hydroxypropylcellulose) (HPC); higher = longer survival
Toxic doses and inconclusive results are not listed.
assay endpoint: T/C

See these solved cases before continuing.
Entry CS(=O)(=O)OCCCCOS(C)(=O)=O — recorded T/C = 89 % of control

Entry N#CCCNc1ccc(NC(=O)C(F)(F)F)cc1 — recorded T/C = 89 % of control

Entry O=C(O)c1ccc(SSc2ccc(C(=O)O)cn2)nc1 — recorded T/C = 102 % of control

Entry S=c1nc[nH]c2nc[nH]c12 — recorded T/C = 100 % of control

Entry O=C1CSC(=S)N1c1ccco1 — recorded T/C = 97 % of control

Entry CC(=O)NNC(=O)c1ccccn1 — recorded T/C = 120 % of control

# evaluate next
Entry COc1ccc(C2c3cc4c(c(OC)c3CC3OCC(=O)C32)OCO4)cc1OC (configuration not stated) — recorded T/C = 103 % of control

###

System: AKR/Lw mice, AKR lymphoma ip, median survival T/C
protocol: NCI In Vivo Anticancer Drug Screen. Data for tumor model Lymphoma AKR (Transplanted) (intraperitoneal) in AKR/Lw mice
condition notes: endpoint: median survival time; dose: 5.0 mg/kg/injection; schedule: Q01DX001 (ip); vehicle: saline; higher = longer survival
Inconclusive results and toxic doses are left out.
Give measured T/C for each item. Keep answers brief.

Entry CCN(CC)CCOc1ccc2c(c1)C(=O)c1cc(OCCN(CC)CC)ccc1-2 — recorded T/C = 106 % of control

Entry O=[N+]([O-])O.[Ga] — recorded T/C = 102 % of control

Entry O=c1[nH]cc(F)c(=O)[nH]1 — recorded T/C = 102 % of control

# evaluate next
Entry CN(Cc1cnc2nc(N)nc(N)c2n1)c1ccc(C(=O)N[C@@H](CCC(=O)O)C(=O)O)cc1 — recorded T/C = 114 % of control

###

Give measured T/C for each item. Keep answers brief.
Test system: AKR/Lw mice, AKR lymphoma ip, median survival T/C
protocol: NCI In Vivo Anticancer Drug Screen. Data for tumor model Lymphoma AKR (Transplanted) (intraperitoneal) in AKR/Lw mice
condition notes: endpoint: median survival time; dose: 25.0 mg/kg/injection; schedule: Q01DX001 (ip); vehicle: saline; higher = longer survival
Toxic doses and inconclusive results are not listed.

Entry Nc1ccn(C2OC(CO)C(O)C2O)c(=O)n1 (configuration not stated) — recorded T/C = 97 % of control

Entry CN(C)C(=O)c1cccc(COc2ccc(N3C(N)=NC(N)=NC3(C)C)cc2Cl)c1 — recorded T/C = 112 % of control

Entry CCCN(CCC)CC(C)=O — recorded T/C = 100 % of control

Entry COc1ccc2cc1Oc1ccc(cc1)C[C@H]1c3cc(c(OC)cc3CCN1C)Oc1c(OC)c(OC)cc3c1[C@H](C2)N(C)CC3 — recorded T/C = 95 % of control

Entry CC1(C)CC[N+]1(C)Cc1ccccc1 (configuration not stated) — recorded T/C = 100 % of control

Entry Cn1c(O)c(C=N)c(=O)n(C)c1=O — recorded T/C = 105 % of control

Entry CC(CN1CC(=O)NC(=O)C1)N1CC(=O)NC(=O)C1 (configuration not stated) — recorded T/C = 94 % of control

Entry CCn1c(O)c(C=N)c(=O)n(CC)c1=O — recorded T/C = 111 % of control

Lab note: each molecule below needs its T/C filled in.
1. C[N+](C)(C)Cc1ccccc1
2. CC1(C)N=C(N)N=C(N)N1c1cc(Cl)ccc1Cl
3. C1CC2CCC[N+]3=C2C(C1)CCC3 (configuration not stated)
4. CN(C)CCCc1c2ccccc2nc2ccc(Cl)cc12

1: 91 % of control; 2: 93 % of control; 3: 100 % of control; 4: 109 % of control

###

System: AKR/Lw mice, AKR lymphoma ip, median survival T/C
protocol: NCI In Vivo Anticancer Drug Screen. Data for tumor model Lymphoma AKR (Transplanted) (intraperitoneal) in AKR/Lw mice
condition notes: endpoint: median survival time; dose: 5.0 mg/kg/injection; schedule: Q04DX003 (ip); vehicle: saline; higher = longer survival
Inconclusive results and toxic doses are left out.
Give measured T/C for each item. Keep answers brief.

See these solved cases before continuing.
Entry O=NN(CCCl)C(=O)NCCCl — recorded T/C = 103 % of control

Entry CC[C@H]1CN2CCc3cc(OC)c(OC)cc3[C@@H]2C[C@@H]1C[C@H]1NCCc2cc(OC)c(OC)cc21 — recorded T/C = 95 % of control

Entry O=c1[nH]cc(F)c(=O)[nH]1 — recorded T/C = 97 % of control

***
Entry Nc1ncn(C2OC(CO)C(O)C2O)c(=O)n1 (centres undefined) — recorded T/C = 124 % of control

###

Give measured T/C for each item. Keep answers brief.
System: AKR/Lw mice, AKR lymphoma ip, median survival T/C
protocol: NCI In Vivo Anticancer Drug Screen. Data for tumor model Lymphoma AKR (Transplanted) (intraperitoneal) in AKR/Lw mice
condition notes: endpoint: median survival time; dose: 150.0 mg/kg/injection; schedule: Q01DX009 (ip); vehicle: saline; higher = longer survival
Inconclusive results and toxic doses are left out.

Entry S=c1nc[nH]c2nc[nH]c12 — recorded T/C = 100 % of control

Entry CN(C)/N=N/c1nc[nH]c1C(N)=O — recorded T/C = 111 % of control

Entry Nc1n[nH]c(N)n1 — recorded T/C = 103 % of control

# evaluate next
Entry CC(=O)NNC(=O)c1ccccn1 — recorded T/C = 105 % of control

###

Give measured T/C for each item. Keep answers brief.
Tested on: AKR/Lw mice, AKR lymphoma ip, median survival T/C
protocol: NCI In Vivo Anticancer Drug Screen. Data for tumor model Lymphoma AKR (Transplanted) (intraperitoneal) in AKR/Lw mice
condition notes: endpoint: median survival time; dose: 100.0 mg/kg/injection; schedule: Q01DX001 (ip); vehicle: saline; higher = longer survival
Inconclusive results and toxic doses are left out.

See these solved cases before continuing.
Entry NC(CSC(c1ccccc1)(c1ccccc1)c1ccccc1)C(=O)O (stereo unspecified) — recorded T/C = 100 % of control

Entry O=C(O)/C=C/C(=O)Nc1cccc(Oc2ccc([N+](=O)[O-])cc2[N+](=O)[O-])c1 — recorded T/C = 91 % of control

Entry S=C1SCN(Cc2ccccc2)CN1Cc1ccccc1 — recorded T/C = 111 % of control

Entry Nc1ccn(C2OC(CO)C(O)C2O)c(=O)n1 (stereo unspecified) — recorded T/C = 100 % of control

Entry c1ccc(C[N+](Cc2ccccc2)=C2CCCCC2)cc1 — recorded T/C = 111 % of control

***
Entry O=C(O)O — recorded T/C = 86 % of control
